Test system: neuron 2A (rhinarial plate on flagellomere 2)
methodSummary: single-sensillum electrophysiology, odor response of neuron 2A; note: key: 0, no response; +, >50 spikes/second; ++, >100 spikes/second; +++, >150 spikes/second
Format: cell-based, Diaphorina citri
details: Table 2; odor diluted to 10^−2, 50 μL in cartridge
Reported response to inhibitory odors, 2A is given for each of the following molecules.

Use the examples below as a reference point.
molecule: CC(=O)C(C)=O
response to inhibitory odors, 2A: 0
//
molecule: CC(C)C(=O)O
response to inhibitory odors, 2A: 0
//
molecule: CCCCCCN
response to inhibitory odors, 2A: 0
//
molecule: CN1CCCCC1
response to inhibitory odors, 2A: 0
//
molecule: CNC
response to inhibitory odors, 2A: 0

Enquiry: Hello, I am looking for reported response to inhibitory odors, 2A with neuron 2A (rhinarial plate on flagellomere 2) for CC1CC(=O)O1 (centres unmarked) . Could you help?
Return: 0

Enquiry: Hello, I am looking for reported response to inhibitory odors, 2A with neuron 2A (rhinarial plate on flagellomere 2) for CCCCCC(=O)OCC [ethyl hexanoate] . Could you help?
Return: 0

Enquiry: Hello, I am looking for reported response to inhibitory odors, 2A with neuron 2A (rhinarial plate on flagellomere 2) for C=C(C)C1CC=C(C=O)CC1 (centres unmarked) . Could you help?
Return: 0

====

Test system: neuron 4B (rhinarial plate on flagellomere 4)
Type: cell-based, Diaphorina citri
details: Table 1; odor diluted to 1%, 50 μL in cartridge
measuredProperty: odor response (frequency of action potentials during stimulus minus baseline), 4B

compound: C=CCSSSCC=C [diallyl trisulfide]
testedOn: neuron 4B (rhinarial plate on flagellomere 4)
result: + (+, >50 spikes/second)
//
compound: CC1=CC[C@H]2C[C@@H]1C2(C)C [(−)-α-pinene]
testedOn: neuron 4B (rhinarial plate on flagellomere 4)
result: + (+, >50 spikes/second)
//
compound: CC(C)=CCCC(C)=CC=O [citral]
testedOn: neuron 4B (rhinarial plate on flagellomere 4)
result: 0
//
compound: CC(=O)CCC=C(C)C [6-methyl-5-hepten-2-one]
testedOn: neuron 4B (rhinarial plate on flagellomere 4)
result: 0
//
compound: CCC/C=C\CO [Z2-hexanol]
testedOn: neuron 4B (rhinarial plate on flagellomere 4)
result: + (+, >50 spikes/second)
//
compound: CC/C=C\CC=O [Z3-hexenal]
testedOn: neuron 4B (rhinarial plate on flagellomere 4)
result: 0

Enquiry: So what's the measured odor response (frequency of action potentials during stimulus minus baseline), 4B for this one? CCCCCCO [1-hexanol]
Return: + (+, >50 spikes/second)

Enquiry: So what's the measured odor response (frequency of action potentials during stimulus minus baseline), 4B for this one? C=C/C(C)=C/CC=C(C)C [E-β-Ocimene]
Return: 0

Enquiry: So what's the measured odor response (frequency of action potentials during stimulus minus baseline), 4B for this one? CCCCCOC(C)=O [pentyl acetate]
Return: + (+, >50 spikes/second)

Enquiry: So what's the measured odor response (frequency of action potentials during stimulus minus baseline), 4B for this one? CCCCCCCCO [1-octanol]
Return: + (+, >50 spikes/second)

====

System: neuron 4B (rhinarial plate on flagellomere 4)
Format: cell-based, Diaphorina citri
details: Table 1; odor diluted to 1%, 50 μL in cartridge
measuredProperty: odor response (frequency of action potentials during stimulus minus baseline), 4B

Use the examples below as a reference point.
compound: O=CCc1ccccc1
result: + (+, >50 spikes/second)

compound: CCCSSCCC [dipropyl disulfide]
result: + (+, >50 spikes/second)

compound: C=C/C(C)=C\C/C=C(\C)CCC=C(C)C
result: 0

compound: C=CC(O)CCCCC (stereo not drawn)
result: 0

compound: CC/C=C\CCO
result: + (+, >50 spikes/second)

Now consider a different compound.
Enquiry: So what's the measured odor response (frequency of action potentials during stimulus minus baseline), 4B for this one? "CC1=CCC(=C(C)C)CC1"
Return: + (+, >50 spikes/second)
